- test-target: USP28 (His-tagged USP28-FL-mammalian) (Homo sapiens)
- Construct: Expression of USP28 (1-1077)-TEV-6*His (pTT5 vector); made in house; host or cells: Expi293f cells (pTT5 vector)
- Sequence (Q96RU2 whole entry): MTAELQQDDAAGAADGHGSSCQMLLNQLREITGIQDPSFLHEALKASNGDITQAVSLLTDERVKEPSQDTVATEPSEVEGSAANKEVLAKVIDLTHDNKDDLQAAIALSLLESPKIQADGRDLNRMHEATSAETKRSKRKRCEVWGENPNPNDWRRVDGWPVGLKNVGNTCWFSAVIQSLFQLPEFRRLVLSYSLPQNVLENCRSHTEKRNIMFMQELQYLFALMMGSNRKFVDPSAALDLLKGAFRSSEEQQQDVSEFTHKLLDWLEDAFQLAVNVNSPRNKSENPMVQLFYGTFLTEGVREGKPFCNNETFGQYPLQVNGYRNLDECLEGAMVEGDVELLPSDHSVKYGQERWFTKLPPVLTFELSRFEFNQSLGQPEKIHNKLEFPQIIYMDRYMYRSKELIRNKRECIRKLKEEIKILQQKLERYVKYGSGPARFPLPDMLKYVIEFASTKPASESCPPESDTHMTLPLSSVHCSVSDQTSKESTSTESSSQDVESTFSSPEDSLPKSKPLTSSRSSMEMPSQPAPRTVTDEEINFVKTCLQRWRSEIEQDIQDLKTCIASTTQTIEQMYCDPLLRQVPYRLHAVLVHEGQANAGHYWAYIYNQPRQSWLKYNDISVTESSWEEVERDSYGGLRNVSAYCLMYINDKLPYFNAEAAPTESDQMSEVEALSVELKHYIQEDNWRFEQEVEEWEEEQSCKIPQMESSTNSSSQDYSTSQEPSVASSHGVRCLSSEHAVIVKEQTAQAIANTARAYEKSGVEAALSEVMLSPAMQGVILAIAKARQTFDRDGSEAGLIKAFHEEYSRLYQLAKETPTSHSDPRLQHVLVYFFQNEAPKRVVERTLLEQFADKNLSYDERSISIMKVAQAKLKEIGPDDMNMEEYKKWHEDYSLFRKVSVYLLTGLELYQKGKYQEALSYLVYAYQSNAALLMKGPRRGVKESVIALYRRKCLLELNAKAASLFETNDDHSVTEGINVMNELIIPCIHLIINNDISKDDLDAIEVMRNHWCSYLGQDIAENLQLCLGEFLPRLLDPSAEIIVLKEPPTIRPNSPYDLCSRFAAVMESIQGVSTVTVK
- method-description: Ubiquitin-Rhodamine 110 Assay for USP28 Activity, Example A-1(a)
- Assay type: biochemical
- study-conditions: Ubiquitin-Rhodamine 110 assay, Example A-1(a); read-out: USP28 A-1(a) IC50 range
pIC50: −log10 of the molar value.
measured-parameter: pIC50

Worked examples follow.
Cc1cnc2c(N)c(C(=O)N[C@H]3CCc4cc(N5CCNC[C@H](O)C5)ccc4C3)sc2n1 (single isomer, unassigned) [Example 7-6]; 5.70 to 6.70
Cc1ccc2c(N)c(C(=O)N[C@H]3COc4cc(N5CC6CCC[C@]6(N)C5)ccc4C3)sc2n1 (stereo partly shown) [Example 249]; 7.30 to 9.00

Now turn to the next molecule.
// sample CO[C@H]1CN(c2ccc3c(n2)CC[C@H](NC(=O)c2sc4nc(C)ccc4c2N)C3)C[C@]1(C)N [Example 239] , its pIC50 was 5.70 to 6.70
